From: ChEMBL document CHEMBL1145107

Test system: Oxytocin receptor (Homo sapiens, UniProt P30559)
Sequence (P30559 whole entry): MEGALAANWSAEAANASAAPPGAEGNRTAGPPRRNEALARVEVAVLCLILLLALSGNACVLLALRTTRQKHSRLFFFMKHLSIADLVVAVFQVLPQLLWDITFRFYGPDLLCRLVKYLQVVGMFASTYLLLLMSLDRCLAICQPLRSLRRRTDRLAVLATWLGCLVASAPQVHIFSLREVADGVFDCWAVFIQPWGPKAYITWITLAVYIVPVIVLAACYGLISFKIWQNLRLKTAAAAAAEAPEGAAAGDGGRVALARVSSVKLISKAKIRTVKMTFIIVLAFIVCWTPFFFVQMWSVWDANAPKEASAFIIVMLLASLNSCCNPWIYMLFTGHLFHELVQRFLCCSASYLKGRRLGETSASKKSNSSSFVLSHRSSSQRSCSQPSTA
Measured attribute: log10 of IC50 (log10 of the value in µM)
In plain terms, each number is the log10 of measured IC50 in µM.

# example entries with known answers
>  <Structure notation>
CC[C@H](C)[C@@H]1NC(=O)[C@H](Cc2ccc(O)cc2)NC(=O)[C@H](N)C(C)(C)SSC[C@@H]2NC(=O)[C@H](CC(N)=O)NC(=O)[C@H](CCC(=O)NCCCC[C@@H](C(=O)NCC(N)=O)NC(=O)[C@@H]3CCCN3C2=O)NC1=O

>  <log10 of IC50>
-0.89

$$$$
>  <Structure notation>
CC[C@H](C)[C@@H]1NC(=O)[C@H]([C@H](C)c2c(C)cc(OC)cc2C)NC(=O)[C@H](N)C(C)(C)SSC[C@@H]2NC(=O)[C@@H](CC(N)=O)NC(=O)[C@@H](CCC(=O)NCCCC[C@H](C(=O)NCC(N)=O)NC(=O)[C@H]3CCCN3C2=O)NC1=O

>  <log10 of IC50>
1.28

$$$$
>  <Structure notation>
CC[C@H](C)[C@@H]1NC(=O)[C@@H]([C@@H](C)c2c(C)cc(OC)cc2C)NC(=O)[C@H](N)C(C)(C)SSC[C@@H]2NC(=O)[C@@H](CC(N)=O)NC(=O)[C@@H](CCC(=O)NCCCC[C@H](C(=O)NCC(N)=O)NC(=O)[C@H]3CCCN3C2=O)NC1=O

>  <log10 of IC50>
1.56

$$$$
>  <Structure notation>
CC[C@H](C)[C@@H]1NC(=O)[C@@H]([C@H](C)c2c(C)cc(OC)cc2C)NC(=O)[C@H](N)C(C)(C)SSC[C@@H]2NC(=O)[C@H](CC(N)=O)NC(=O)[C@H](CCC(=O)NCCCC[C@@H](C(=O)NCC(N)=O)NC(=O)[C@@H]3CCCN3C2=O)NC1=O

>  <log10 of IC50>
-0.80

$$$$

# context switch: different compound, same log10 of IC50
According to the records, this compound CC[C@H](C)[C@@H]1NC(=O)[C@H]([C@@H](C)c2c(C)cc(OC)cc2C)NC(=O)[C@H](N)C(C)(C)SSC[C@@H]2NC(=O)[C@H](CC(N)=O)NC(=O)[C@H](CCC(=O)NCCCC[C@@H](C(=O)NCC(N)=O)NC(=O)[C@@H]3CCCN3C2=O)NC1=O displays log10 of IC50 of -2.10

----------
Test system: Gastrin/cholecystokinin type B receptor (Homo sapiens)
Sequence (P32239 whole entry): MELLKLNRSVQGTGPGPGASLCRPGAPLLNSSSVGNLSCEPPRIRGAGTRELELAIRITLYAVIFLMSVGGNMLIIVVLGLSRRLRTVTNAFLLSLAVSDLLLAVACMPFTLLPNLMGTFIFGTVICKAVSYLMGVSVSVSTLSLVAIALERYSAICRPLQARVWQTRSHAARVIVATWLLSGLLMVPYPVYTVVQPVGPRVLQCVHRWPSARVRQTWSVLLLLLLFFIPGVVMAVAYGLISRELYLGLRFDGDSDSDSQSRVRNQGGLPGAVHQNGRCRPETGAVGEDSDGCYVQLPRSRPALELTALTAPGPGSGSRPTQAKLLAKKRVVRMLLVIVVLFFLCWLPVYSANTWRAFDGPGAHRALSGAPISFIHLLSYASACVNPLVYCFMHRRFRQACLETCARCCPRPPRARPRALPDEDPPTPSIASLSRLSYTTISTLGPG
Protocol details: Binding affinity towards Cholecystokinin type B receptor (CCK-B) receptor was determined
Where a SMILES comes first, the peptide text is derived from it. [ ]: non-standard residue; d: D form. NMeNle = CCCC[C@H](NC)C(=O)O; dNle = CCCC[C@@H](N)C(=O)O
The reader will find reported Ki values listed item by item below.
Give me the value, and tack the unit on after it.

# example entries with known answers
>  <Compound>
CCCC[C@@H](NC(=O)[C@@H](N)Cc1ccc(O)cc1)C(=O)NCC(=O)N[C@@H](Cc1c[nH]c2ccccc12)C(=O)N(C)[C@@H](CCCC)C(=O)N[C@@H](CC(=O)O)C(=O)N[C@@H](Cc1ccccc1)C(N)=O (H-Y[dNle]GW[NMeNle]DF-NH2)

>  <Test system>
Gastrin/cholecystokinin type B receptor (Homo sapiens)

>  <Measured attribute>
Ki

>  <Observed result>
0.6 nM

$$$$
>  <Compound>
CCCC[C@@H](C(=O)N[C@@H](CC(=O)O)C(=O)N[C@@H](Cc1ccccc1)C(N)=O)N(C)C(=O)[C@H](Cc1c[nH]c2ccccc12)NC(=O)[C@H](CCC(=O)O)NC(=O)[C@@H](Cc1ccccc1)NC(=O)[C@@H](N)Cc1ccc(O)cc1

>  <Test system>
Gastrin/cholecystokinin type B receptor (Homo sapiens)

>  <Measured attribute>
Ki

>  <Observed result>
2.1 nM

$$$$
>  <Compound>
CCCC[C@@H](C(=O)N[C@@H](CC(=O)O)C(=O)N[C@@H](Cc1ccccc1)C(N)=O)N(C)C(=O)[C@@H](Cc1c[nH]c2ccccc12)NC(=O)CNC(=O)[C@@H](Cc1ccccc1)NC(=O)[C@@H](N)Cc1ccc(O)cc1 (H-Y[dF]G[dW][NMeNle]DF-NH2)

>  <Test system>
Gastrin/cholecystokinin type B receptor (Homo sapiens)

>  <Measured attribute>
Ki

>  <Observed result>
1.6 nM

$$$$

So the reported Ki for CCCC[C@@H](C(=O)N[C@@H](CC(=O)O)C(=O)N[C@@H](Cc1ccccc1)C(N)=O)N(C)C(=O)[C@H](Cc1c[nH]c2ccccc12)NC(=O)CNC(=O)CNC(=O)[C@@H](N)Cc1ccc(O)cc1 (H-YGGW[NMeNle]DF-NH2) , on Gastrin/cholecystokinin type B receptor (Homo sapiens), turned out to be 1.3 nM

So the reported Ki for CCCC[C@@H](C(=O)N[C@@H](CC(=O)O)C(=O)N[C@@H](Cc1ccccc1)C(N)=O)N(C)C(=O)[C@@H](Cc1c[nH]c2ccccc12)NC(=O)CNC(=O)[C@@H](C)NC(=O)[C@@H](N)Cc1ccc(O)cc1 (H-Y[dA]G[dW][NMeNle]DF-NH2) , on Gastrin/cholecystokinin type B receptor (Homo sapiens), turned out to be 1.3 nM
